Record form. Attribute: z-score. Fill in for each entry.
Test protocol: yeast growth modulation, basal conditions, primary screen, YJM789 clinical isolate, OD600, 24 h (AID 1089);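 also: growth of clinical yeast isolate S. cerevisiae YJM 789 seeded 1000 cells per well; test concentration not given here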
Condition context: S. cerevisiae YJM789 growth, higher = more signal, called active from +8 up or from −8 down
Numbers only.

Molecule	z-score
CC1CC/C=C\[C@H]2OC34C=CCN(Cc5ccccc5)C(=O)[C@H]3N(CCCO)C(=O)[C@@H]4C2C(=O)O1 (some centres not stated)	-1.7
CC1CC/C=C\[C@H]2OC34C=CCN(C(C)(C)C)C(=O)[C@H]3N(C(C)CO)C(=O)[C@@H]4C2C(=O)O1 (some centres not stated)	0.214

Quick one: give me z-score for each item below, same order please.
1. C=CCOC(=O)[C@H]1[C@@H]2C(=O)O[C@@H](c3ccccc3)[C@@H](c3ccccc3)N2[C@@H](c2ccc(OCCOC(=O)[C@H]3C[C@H]4C(=O)N[C@@H](CCCCNC(C)=O)C(=O)N4[C@H]3c3cccc(OCCO)c3)cc2)[C@]12C(=O)Nc1ccccc12
2. CCN(CC)c1ccc(N2CC=CC34O[C@@H]5C=CCCOC(=O)C5[C@H]3C(=O)N(CCCCCCO)[C@@H]4C2=O)cc1 (some centres not stated)
3. CCCc1cc2c(n1Cc1cc(F)cc(F)c1)C(C)C1CN(C(=O)c3ccccc3)C(C)(C(=O)OC)C21 (configuration not stated)
4. COCCOC(=O)N1C(=O)[C@@]2(c3cc(C#CCC(C(=O)OC)C(=O)OC)ccc31)[C@H](c1ccccc1OCCO)N1[C@H](c3ccccc3)[C@H](c3ccccc3)OC(=O)[C@H]1[C@@H]2C(=O)N1CCN(c2ncccn2)CC1
5. Cc1ccc(S[C@]2(C(=O)NCCCN(C)C)CC(=O)N(Cc3cc(C(F)(F)F)cc(C(F)(F)F)c3)[C@@H]2c2ccc(CO)cc2I)cc1

1: 0.17; 2: -2.16; 3: 0.149; 4: 2.01; 5: -1.17

Parameters: items (list). Returns: z-score for each item.
1. COc1ccc(CCNC(=O)[C@@]2(Sc3ccc(C)cc3)CC(=O)N(C3Cc4ccccc4C3)[C@@H]2c2ccc(CO)cc2I)cc1
2. C=C(/C(=C/C[C@H](OC(C)=O)c1ccccc1OCCO)c1cnc2ccccc2c1)C(C)C
3. COc1ccc(C(O)C2C=CC3C(=O)N(Cc4ccccc4)C(=O)C3N2n2cnnc2)cc1OCc1ccccc1 (configuration not stated)
4. C=CCOC(=O)[C@H]1[C@@H]2C(=O)O[C@@H](c3ccccc3)[C@@H](c3ccccc3)N2[C@@H](c2ccc(OCCOC(=O)[C@H]3C[C@H]4C(=O)N[C@@H](CCCCNC(C)=O)C(=O)N4[C@H]3c3ccc(O)cc3)cc2)[C@]12C(=O)Nc1ccc(I)cc12

[0.534, 0.0556, -1.56, 1.12]

Entry under review: `COc1ccc(C#Cc2ccc3c(c2)[C@]2(C(=O)N3)[C@H](C(=O)NC[C@H](O)c3ccccc3)[C@H]3C(=O)O[C@H](c4ccccc4)[C@H](c4ccccc4)N3[C@@H]2c2ccc(O)cc2)cc1` . Reported z-score?
2.26

---

Assay target: Torsin-1A (Homo sapiens) (UniProt O14656)
Sequence (O14656 whole entry, looked up): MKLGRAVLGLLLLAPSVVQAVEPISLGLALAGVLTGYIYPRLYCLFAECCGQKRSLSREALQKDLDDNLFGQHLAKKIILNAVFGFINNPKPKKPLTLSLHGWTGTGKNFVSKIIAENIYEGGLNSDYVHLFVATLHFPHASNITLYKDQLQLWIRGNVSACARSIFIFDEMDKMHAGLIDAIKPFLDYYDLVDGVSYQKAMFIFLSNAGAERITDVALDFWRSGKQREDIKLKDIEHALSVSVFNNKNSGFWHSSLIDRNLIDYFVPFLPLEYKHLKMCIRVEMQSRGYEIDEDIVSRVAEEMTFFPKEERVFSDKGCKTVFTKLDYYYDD
Test protocol: torsin A binders from cell lysate, primary screen, small-molecule microarray, wild-type, 635/667 nm (AID 1149)
Condition context: COS7 hTOR1A-WT lysate, 635 nm fluorescence, higher = more signal
Experimental readout: composite z-score
Numbers only.

Molecule	composite z-score
Cc1ccc(N2C(=O)c3ccccc3[C@@H](C(=O)NC3CC3)[C@@H]2c2ccc(CO)cc2)nc1	1.23
CC1CC/C=C\[C@H]2OC34C=CCN(Cc5ccccc5)C(=O)[C@H]3N(CCCO)C(=O)[C@@H]4C2C(=O)O1 (stereo partly drawn)	-0.681
COC(=O)[C@@]1(Cc2ccccc2)N=C(c2ccc(OCCCO)cc2)O[C@H]1c1ccccc1	0.348

Hey, can you go through the list below and give me composite z-score for every item?
1. CN1C(=O)C2C=CC(C(O)c3ccc([N+](=O)[O-])cc3)N(N3CCCCC3)C2C1=O (stereo not drawn)
2. C=C[C@H](CO)NS(=O)(=O)c1ccc(Br)cc1
3. [N-]=[N+]=Nc1ccccc1[C@@H]1OC(c2ccc(OCCCO)cc2)=N[C@]1(Cc1ccccc1)C(=O)N1CCOCC1
4. COc1ccccc1CN1C(=O)c2ccccc2[C@@]2(Cc3ccccc3N(CC(C)C)C2=O)[C@@H]1c1ccc(CO)cc1
5. C=CCNC(=O)[C@H]1[C@@H]2C(=O)O[C@@H](c3ccccc3)[C@@H](c3ccccc3)N2[C@@H](c2ccccc2OCCO)[C@]12C(=O)Nc1ccc(C#CCCO)cc12

[0.319, 0.0757, 0.311, -0.913, -0.897]
